Kindly state normalized growth for each of the entries shown.
assay: chemical genetic growth profiling, strain panel (AID 1159580);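 further: tested at 20 µM; growth read once vehicle control cultures reached saturation at 30 °C; 1 = growth at the plate median or of vehicle wells; lower values mean less growth of the strain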; details: S. cerevisiae deletion strains, growth OD, strain wtn01, active compounds read low
Out of some 5,500 compounds screened, about 2,000 (36%) were called active. Inconclusive results (about 18%) are left out. The list shows a part of the results.
Field format: numeric only.

Annotate the molecule O=C(O)c1cc(O)c2c(c1)[C@@H]([C@H]1c3cc(C(=O)O)cc(O)c3C(=O)c3c(O[C@H]4O[C@H](CO)[C@@H](O)[C@H](O)[C@H]4O)cccc31)c1cccc(O[C@H]3O[C@H](CO)[C@@H](O)[C@H](O)[C@H]3O)c1C2=O with its measured normalized growth. 1.01

Annotate the molecule NC(=O)NC(=O)Cc1ccccc1 with its measured normalized growth. 0.976

Annotate the molecule O=C(O)C1=CCCNC1 with its measured normalized growth. 0.985

Annotate the molecule CNCCCC12CCC(c3ccccc31)c1ccccc12 with its measured normalized growth. 0.964

Annotate the molecule NCC(=O)c1ccccc1 with its measured normalized growth. 0.987

Annotate the molecule C[C@H](CCC(=O)O)[C@H]1CCC2C3C(=O)CC4CC(=O)CC[C@]4(C)C3CC(=O)[C@@]21C (some centres not stated) with its measured normalized growth. 0.988

Annotate the molecule C[C@H]1c2cccc(O)c2C(O)=C2C(=O)[C@]3(O)C(O)=C(C(N)=O)C(=O)[C@@H](N(C)C)[C@@H]3[C@@H](O)[C@@H]21 with its measured normalized growth. 0.891

Annotate the molecule C/C1=C\CC(C)(C)/C=C/CC2(C)OC2CC1 (configuration not stated) with its measured normalized growth. 0.974

Annotate the molecule CC(=O)c1ccc(O)c(CC=C(C)C)c1 with its measured normalized growth. 0.957

Annotate the molecule C/C1=C/CC(C)(C)/C=C/C/C(C)=C/CC1 with its measured normalized growth. 0.993

Annotate the molecule CC(C)CCCC(C)[C@H]1CCC2C3CC[C@@H]4C[C@H](O)CC[C@]4(C)C3CC[C@@]21C (some centres not stated) with its measured normalized growth. 1

Annotate the molecule CCN1CCN(C(=O)NC(C(=O)N[C@@H]2C(=O)N3[C@@H]2SC(C)(C)[C@@H]3C(=O)O)c2ccccc2)C(=O)C1=O (some centres not stated) with its measured normalized growth. 1.04

Annotate the molecule CN(C)C(=O)Oc1cccc([N+](C)(C)C)c1 with its measured normalized growth. 0.964

Annotate the molecule CN(C)CCCN1c2ccccc2Sc2ccc(Cl)cc21 with its measured normalized growth. 0.969

Annotate the molecule CC(C)CCCC(C)C1CCC2C3CC(=O)[C@H]4C[C@@H](O)CC[C@]4(C)C3CC[C@]12C (some centres not stated) with its measured normalized growth. 1.03

Annotate the molecule CC(C)CCCC(C)C1CCC2C3C[C@@H](O)[C@@]4(O)C[C@@H](O)CC[C@]4(C)C3CC[C@]12C (some centres not stated) with its measured normalized growth. 1.07

Annotate the molecule NCC(N)C(=O)c1ccccc1 (configuration not stated) with its measured normalized growth. 0.999

Annotate the molecule CC(CCC(=O)O)[C@H]1CCC2C3CC[C@@H]4CC(=O)CC[C@]4(C)C3C=C[C@@]21C (some centres not stated) with its measured normalized growth. 0.931

Annotate the molecule CC(=O)Oc1ccc(O)cc1 with its measured normalized growth. 0.995

Annotate the molecule CC(=O)c1cc(CC=C(C)C)c(O)c(CC=C(C)C)c1 with its measured normalized growth. 0.908

Annotate the molecule CC(=O)Oc1ccc(C(c2ccc(OC(C)=O)cc2)c2ccccn2)cc1 with its measured normalized growth. 1.01

Annotate the molecule CCN(CC)CCOC(=O)C(c1ccccc1)C1CCCCC1 (configuration not stated) with its measured normalized growth. 0.938
